Experiment: In vivo pharmacokinetic study in SD rats
Set-up: species or system Sprague Dawley rats
Conditions: male, Sprague-Dawley, rat, plasma, iv, i.v. 1 mg/kg

# compound, Cmax / ng/mL
records = [
    ("O=C(Nc1ncc2ncc(-c3cn[nH]c3)cc2n1)NC1CCCC1 [32d]", 1310),
]

====

Molecular target: PI3Kα (Homo sapiens, UniProt P42336)
Sequence (P42336 whole entry): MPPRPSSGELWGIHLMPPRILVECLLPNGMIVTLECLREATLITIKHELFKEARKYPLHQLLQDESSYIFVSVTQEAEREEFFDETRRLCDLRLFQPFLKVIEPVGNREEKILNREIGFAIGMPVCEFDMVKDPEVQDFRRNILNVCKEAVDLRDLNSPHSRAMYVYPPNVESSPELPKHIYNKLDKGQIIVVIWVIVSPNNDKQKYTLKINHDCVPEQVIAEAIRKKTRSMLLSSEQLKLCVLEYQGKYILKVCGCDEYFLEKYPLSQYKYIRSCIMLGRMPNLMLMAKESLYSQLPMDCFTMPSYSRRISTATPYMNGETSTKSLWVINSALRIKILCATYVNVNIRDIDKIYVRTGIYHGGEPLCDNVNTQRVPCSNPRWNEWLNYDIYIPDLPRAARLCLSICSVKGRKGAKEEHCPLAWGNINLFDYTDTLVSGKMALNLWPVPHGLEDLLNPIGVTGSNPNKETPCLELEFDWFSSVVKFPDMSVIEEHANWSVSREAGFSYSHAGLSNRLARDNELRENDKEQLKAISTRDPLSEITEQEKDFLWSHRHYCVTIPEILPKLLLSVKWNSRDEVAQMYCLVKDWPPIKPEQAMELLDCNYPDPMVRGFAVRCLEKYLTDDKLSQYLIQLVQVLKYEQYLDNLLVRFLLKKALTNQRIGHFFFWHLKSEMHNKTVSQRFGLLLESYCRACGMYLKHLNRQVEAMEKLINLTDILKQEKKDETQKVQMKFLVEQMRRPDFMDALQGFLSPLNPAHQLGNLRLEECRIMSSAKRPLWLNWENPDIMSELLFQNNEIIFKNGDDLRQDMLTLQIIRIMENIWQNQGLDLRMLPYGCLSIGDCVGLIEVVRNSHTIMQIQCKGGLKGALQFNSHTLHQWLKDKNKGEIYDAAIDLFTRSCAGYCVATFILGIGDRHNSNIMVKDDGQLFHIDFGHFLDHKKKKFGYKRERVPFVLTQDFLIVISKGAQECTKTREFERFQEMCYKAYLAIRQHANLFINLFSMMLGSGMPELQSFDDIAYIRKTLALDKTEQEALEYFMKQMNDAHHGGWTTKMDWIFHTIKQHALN
Sequence (P27986 whole entry partner): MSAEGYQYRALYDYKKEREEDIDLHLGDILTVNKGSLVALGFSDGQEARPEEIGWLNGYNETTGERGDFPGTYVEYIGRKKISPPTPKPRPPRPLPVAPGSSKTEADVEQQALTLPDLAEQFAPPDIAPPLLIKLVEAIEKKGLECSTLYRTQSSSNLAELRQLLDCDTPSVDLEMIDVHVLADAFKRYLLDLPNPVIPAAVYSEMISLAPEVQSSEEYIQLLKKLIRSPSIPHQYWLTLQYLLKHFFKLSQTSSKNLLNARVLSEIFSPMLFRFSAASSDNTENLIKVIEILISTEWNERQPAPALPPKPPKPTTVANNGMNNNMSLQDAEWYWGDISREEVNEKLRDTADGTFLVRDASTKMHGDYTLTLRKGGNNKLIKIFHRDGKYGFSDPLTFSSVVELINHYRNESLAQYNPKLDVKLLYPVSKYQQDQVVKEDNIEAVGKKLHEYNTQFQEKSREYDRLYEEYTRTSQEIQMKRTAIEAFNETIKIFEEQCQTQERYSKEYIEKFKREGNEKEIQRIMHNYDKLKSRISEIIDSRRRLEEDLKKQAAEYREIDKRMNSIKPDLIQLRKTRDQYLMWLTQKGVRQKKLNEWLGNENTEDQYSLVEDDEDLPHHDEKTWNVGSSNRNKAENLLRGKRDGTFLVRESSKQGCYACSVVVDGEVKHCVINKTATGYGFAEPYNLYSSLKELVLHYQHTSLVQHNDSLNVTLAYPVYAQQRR
Experiment: Enzymatic inhibition assay (ADP-Glo Plus luminescence kinase assay), PI3Kα
Format: biochemical
Conditions: 1 μM (1000 nM) compound
measurement-kind: inhibition at 1 µM (%)

# molecule, recorded-result
rows = [
    ("Cn1cc(-c2cnc3nc(NC(=O)NC4CCCC4)ncc3c2)cn1 [compound 24]", 15.1),
    ("Cn1cc(-c2n[nH]c3nc(NC(=O)NC4CCCC4)ncc23)cn1 [16d]", 4),
    ("Cc1cc(-c2n[nH]c3nc(NC(=O)NC4CCCC4)ncc23)ccn1 [16b]", 27.4),
    ("Cc1cc(-c2n[nH]c3nc(NC(=O)NCc4ccccc4)ncc23)ccn1 [16a]", 8.7),
    ("Cn1cc(-c2n[nH]c3nc(NC(=O)NCc4ccccc4)ncc23)cn1 [16c]", 1.8),
]
